Collected apparent KD of MS2 coat protein values appear next to each entry.
Test system: MS2 coat protein
run_description: apparent KD of MS2 coat protein; higher = weaker reporter binding
condition_info: Eterna round: R107; input ligand: arginine 13.2 mM

sequence_entry	measurement_target	unit_descriptor	apparent KD of MS2 coat protein
UCGCUAUUGUCGGCCGCCACUACUGCAGGGAAACAAAUAUAACCACAUGAGGAUCACCCAUGUCUUAGGACCGGGACACCCAUCU [theeternabot_sameState_MS2_Trp_B_2]	MS2 coat protein	nM	54.8
AACUUCGCAUAGGAAAACUAUGUGAAGAAUCGAGGACCGGUACGGCCGCCACUCGUCCUCAACAUGAGGAUCACCCAUGUAAUAA [Mat - Exclusion - Trytophan A - D4]	MS2 coat protein	nM	22.1
CAUAUAUAAGCGGCCGCCACUUACUCAUGAGGUAACAACAUGAGGAUCACCCAUGUUUGAGGAUCAAGGACCGGGCUUAUAUAUG [AstrosSSTryB#5]	MS2 coat protein	nM	27
CAAUCAAUCAAUCAAUCAAUCAACCAUGAAGGAGCGUGGGAAACCACAGGUAGGUCGCAUGGAAAACAUGAGGAUCACCCAUGUA [Casablanca]	MS2 coat protein	nM	22.1
GCAUCCUAGUCGGCCGCCACUGGUACGAACACCUUCACCCGUGUGCACAUGAGGAUCACCCAUGUUAGGACCGGGACUAGGAUGC [SSTryp B #21]	MS2 coat protein	nM	10.3
GGCUGCGAUGGCGGAAAUUAUUUACAUAGGCGAGGACCGGUACGGCCGCCACUCGAACGUACAUGAGGAUCACCCAUGUGAUAAU [theeternabot_sameState_MS2_Trp_A_1]	MS2 coat protein	nM	29
GCAUCCUAGUCGGCCGCCACUGGUAUCAACACCUUCACCCGUGUGCACAUGAGGAUCACCCAUGUUAGGACCGGGACUAGGAUGC [SSTryp B #19]	MS2 coat protein	nM	8.01
ACAUUUAACUGAAGGAGCGUGAUAUUUACAUGAGGAUCACCCAUGUCUUUCAUGAUAUAUUCACAGGUAGGUCGCAGACUAAUGA [JR_ExcArginiB_Sub006]	MS2 coat protein	nM	118
UAAUCGUAGGCGGCCGCCACUUUUUGGUAGUGUCCAUUGUACACUCACAUGAGGAUCACCCAUGUAAGGACCGGGCCCGCAUCAG [theeternabot_exclusion_MS2_Trp_B_32]	MS2 coat protein	nM	17.9
UGUCGGCGUAAGUUGGCAUGUCUUGCUGGUCGAGGACCGGUACGGCCGCCACUCGAUCCUUCGCACAUGAGGAUCACCCAUGUUG [SS Tryp A #25]	MS2 coat protein	nM	20.3
AAAAUCCUACCUGAGGAUCACCCAGGUGAAGGAGCGCCCGAAAGGGCAGGUAGGUCGCACCUGAGGAUCACCCUGGUACCUAAAA [ArgAX 27 #DoubleMs2 #OpenEnded #AlternativeMS2]	MS2 coat protein	nM	86.2
AAUUAAAACUGAAGGAGCGUCGUGCGUGGGUGCGUCCCACAUGAGGAUCACCCAUGUGGUUGACAGGUAGGUCGCAGAAUAAUUU [Exclusion - Arginine B]	MS2 coat protein	nM	66.9

* * *

Collected apparent KD of K4 kissing-loop reporter values appear next to each entry.
Test system: K4 kissing-loop RNA reporter;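 further: bound reporter read as fluorescence of individual clusters on recovered sequencing chips by microscopy, with normalized cluster intensities fitted with a binding model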
run_description: apparent KD of K4 kissing-loop reporter; higher = weaker reporter binding
condition_info: Eterna round: R107; input ligand: arginine 13.2 mM
value_type: apparent KD of K4 kissing-loop reporter (nM)

> print(dat)
                             sequence.entry            measurement.target                               value.type  unit.descriptor  endpoint.result
1  UUUAAAUAUAGUGAUGUUAUAUAACAAUGACGAGGACCGGUACGGCCGCCACUCGAGAGAGAUAAUGAUAAAAUAAAUAAUUUUC [AstrosSSTrypA#1]  K4 kissing-loop RNA reporter  apparent KD of K4 kissing-loop reporter               nM              654
2  UGUACCGAGUCAGGAUAUGGCGUCGAAAGACGAAUCUUAGUGAUGUUAGGGAUCUGCGAAAGCAGUCCAGAAGGGACUUGGUACU [FmnBS 26 U37]  K4 kissing-loop RNA reporter  apparent KD of K4 kissing-loop reporter               nM              583
3  CUUGGAAGGACGGCCGCCACUGGGCAGUGAUGUUGCCCGAGUUGGUAACGCAGUGAUGUUGCGUCCAGGACCGGGUCCUAGGAAU [Exclusion Tryptophan B GF 25]  K4 kissing-loop RNA reporter  apparent KD of K4 kissing-loop reporter               nM              113

* * *

System: MS2 coat protein
run_description: apparent KD of MS2 coat protein; designed switch direction (-1 OFF switch, 1 ON switch): -1; higher = weaker reporter binding
condition_info: input ligand: none
Collected apparent KD of MS2 coat protein values appear next to each entry.
value_type: apparent KD of MS2 coat protein (nM)

sequence_entry	unit_descriptor	endpoint_result
GAAUAGAGAGGAUAUGCGAAGUAGGUAGUAAGAUAUAUCUGACAUGAGGAUCACCCAUGUAGAAGGCUCAGAUC [EX2 #4] (Eterna round: R97, puzzle: Exclusion 2)	nM	35.2
GGUCCUUCUGUCAGGAUAUCCAGUAUCAGACAGCAGGAGAAGGGACAUGAGGAUCACCCAUGUAAUAAGAAGAA [Onrean] (Eterna round: R97, puzzle: Brourd's mod of Exclusion 4)	nM	27.6
ACAAGCUUUACGAUCCUCUACAUGAGGAUCACCCAUGUGCUCGUAUUGUUUAGUACUAUCACGAAAGUGAUAGUACA [Sensor, turn off variant 1 v.5] (Eterna round: R97, puzzle: Sensor, turn-off variant 1)	nM	1090
CCGUCGGUAGGAUAUGCUAUGCAUGUCGGCGCUAUUUGAGGACAUGAGGAUCACCCAUGUAGAAGGGCCGAGGU [Eternabot (L1) Solution 55] (Eterna round: R97, puzzle: Exclusion 2)	nM	15.7
GCCUUGGGAGUCAGGAUAUACAAUAAAAUAAUUAAGUAGAAGGGACAUGAGGAUCACCCAUGUACAUUACAUUG [alecazam30] (Eterna round: R97, puzzle: Brourd's mod of Exclusion 4)	nM	13.3

* * *

Collected apparent KD of MS2 coat protein values appear next to each entry.
System: MS2 coat protein
run_description: apparent KD of MS2 coat protein; designed switch direction (-1 OFF switch, 1 ON switch): -1; higher = weaker reporter binding
condition_info: input ligand: FMN 200 uM
value_type: apparent KD of MS2 coat protein (nM)

sequence_entry	unit_descriptor	endpoint_result
AUAAUGUCAGGAUAUCAGUCGACUAGCUUCGGCUAGUCGACUGAGAAGGGACAUGAGGAUCACCCAUGUGUUUC [E4/14-A1] (Eterna round: R97, puzzle: Exclusion 4)	nM	2390
AAGUCGACGGUGAGGAUAUUAGUUGAACGACAGAUUAAGAAGGUACAUGAGGAUCACCCAUGUGGGUAACGUUG [Brourd's EX4 #77] (Eterna round: R97, puzzle: Brourd's mod of Exclusion 4)	nM	76.3
CCAGAGGAAGGAUAUUAAGGCGUAUACAUGAGGAUCACCCAUGUCCUACACUUCGCACUAUAAGAAGGUUCCCGGA [Eternabot (Original) Solution 39] (Eterna round: R97, puzzle: Exclusion 5)	nM	193
AUUGUGUUAGGAUAUAACAACUACUAAUAAAUUAGUAGUUGUUAGAAGGAACAUGAGGAUCACCCAUGUAUGAU [-21.1, -20.3 kcal, A 38%] (Eterna round: R97, puzzle: Exclusion 4)	nM	60
GGUCUACAUGAGGAUCACCCAUGUAAGGAUAUCGUCACUGGAGCUGCGGCUCCAGUGACGAGAAGGUGCAUAAU [E1/11-A3] (Eterna round: R97, puzzle: Exclusion 1)	nM	39.4
AAGAAACAUGAGGAUCACCCAUGUGAGGAUAUGAGCACGACCGUGAGGUCGAUAAGAAUCAGAAGGCACAUUAA [JL-ex1-4.55] (Eterna round: R97, puzzle: Exclusion 1)	nM	137
GUGCAACAUGAGGAUCACCCAUGUUAGGAUAUGUCCUUGGAGACGCACUAGCUCUGAGACAGAAGGGACAGAGG [Eternabot (Original) Solution 34] (Eterna round: R97, puzzle: Exclusion 1)	nM	69.9
AACUGUGAGGCAGGAUAUGAAGCAUGGGCCGCGUGAUAAUACAUGAGGAUCACCCAUGUAGGGAUUCAGAAGGGCCCAGAGCAC [Atusveer] (Eterna round: R96, puzzle: Exclusion NG 2)	nM	20.4
CUGUGCACGCUGCGGUCCUACAUGAGGAUCACCCAUGUGGUCUGGUGGCGUGGGUCACCGGACUUGGCUCGUCUUGC [salish99_S_TOV1_R5_062] (Eterna round: R97, puzzle: Sensor, turn-off variant 1)	nM	22.9
CGGUGUAACACAGGAUAUCAUCGCAACUGACGUUGAGAAGGGUGACAUGAGGAUCACCCAUGUGAUUUCUCAAUAUUAUACAUC [Prohibition 83 - Jieux - Exclusion NG 1] (Eterna round: R96, puzzle: Exclusion NG 1)	nM	508
UACGAAUUAGGAUAUGCAAUGGGCUCGCUUUCCUUCGAUAAACUUGAGGAUCACCCAAGUAGAAGGAAUUUGUA [Mod 37 - Jieux - Exclusion 2] (Eterna round: R97, puzzle: Exclusion 2)	nM	14.8
ACUUACUGAGGAUAUACAUAGAUUUACAUGAGGAUCACCCAUGUUCCUCUUUGUAUAAAUGUAGAAGGCAGAAGAA [Mat - Exclusion 5 - JL Mod - D58] (Eterna round: R97, puzzle: Exclusion 5)	nM	177
GUAAUGUCAGGAUAUACUAAUGAUGAAUGAUCAGACAUUAUGUAGAAGGGACAUGAGGAUCACCCAUGUAAUAU [EX4 #4] (Eterna round: R97, puzzle: Exclusion 4)	nM	49.3
AAAUAGCUUGAGGAUAUUGGAUAGGAUUUAGUGCGAGAAGGCAAGACAUGAGGAUCACCCAUGUUGUGUUGGGA [EX6 #13] (Eterna round: R97, puzzle: Exclusion 6)	nM	48.4
AAUUUGCAAGCGAGAUCCCACAUGAGGAUCACCCAUGUGCUCGUCUUAUAAGGUACUGUGACGAGAGUCACGGUACC [Mat - Sensor, turn-off var - Eli Mod - D91] (Eterna round: R97, puzzle: Sensor, turn-off variant 1)	nM	15.6
AGCUAGUCAGGAUAUUCUAAUAAUUACAUGAGGAUCACCCAUGUGCAUAGACAAGGGUGUGAAGAAGGGACUAGCG [Omei Ex5 A7] (Eterna round: R97, puzzle: Exclusion 5)	nM	797
CAUAGUUACUCAGGAUAUAGUACAUGAGGAUCACCCAUGUAAUAAAUGAGAAUUUCGAAUGUAUACUAGAAGGGAGAAAUCUAC [Ostracism 55 - Jieux - Exclusion NG 2] (Eterna round: R96, puzzle: Exclusion NG 2)	nM	44.5
GAAAACGAAGAGGAUAUAUGAUAUCAAAGCUUCAUAGAAGGCUUCACAUGAGGAUCACCCAUGUGAUCUUCAAA [jl-ex6-4.07 ViennaUCT mod] (Eterna round: R97, puzzle: Exclusion 6)	nM	262
